Provide the recorded growth for the entries that follow.
# Tested on: PC-3 prostate
# method.notes: NCI-60 one-dose screen, 48 h (100 = growth as untreated, 0 = no growth, -100 = all killed)
# test.conditions: 10 µM unless noted
The panel holds about 83,000 compounds, 20% with a hit somewhere; the sample as a whole holds those more often.
One number for each entry, in %.

[
  {
    "smiles.entry": "CCOC(=O)c1ccc2c(c1)nc(-c1ccccc1)n2C1CCCCC1",
    "unit.tag": "%",
    "growth": 74.1
  },
  {
    "smiles.entry": "C=C(C)[C@@H]1CC[C@]2(C(=O)N3CCOCC3)CC[C@]3(C)[C@H](CC[C@@H]4[C@@]5(C)C/C(=C/c6ccncc6)C(=O)C(C)(C)[C@@H]5CC[C@]43C)[C@@H]12",
    "unit.tag": "%",
    "growth": 25.2
  },
  {
    "smiles.entry": "COc1cc(OCc2cccc(Br)c2C)cc(OC)c1C=O",
    "unit.tag": "%",
    "growth": 79.6
  },
  {
    "smiles.entry": "O=C(Nc1cccc(-c2ccc(N3CCOCC3)nn2)c1)Nc1cccc(C(F)(F)F)c1",
    "unit.tag": "%",
    "growth": 31.4
  }
]

Batch: growth for all items listed.
1. CC(C)(Sc1cc(C(C)(C)C)c(O)c(C(C)(C)C)c1)Sc1cc(C(C)(C)C)c(OC(=O)CCCC(=O)O)c(C(C)(C)C)c1
2. N#Cc1c(-c2ccccc2)[nH]c2ncc(-c3ccccc3)n2c1=O
3. Cc1ccc(NC(=O)c2sc3nc(C)c(Br)c(C)c3c2N)cc1
4. O=C(c1ccccc1)c1ccc(C2CCCCC2)cc1
5. COc1ccc(-c2cc(-c3cccnc3)nc3sc4c(=O)[nH]c(-c5ccc(Cl)cc5)nc4c23)cc1OC

// result
1: 33.9; 2: 74.6; 3: 53.7; 4: 103; 5: 90.4
